# remaining at 192 h annotations
test: physchem; type: physicochemical; conditions: solid; after treatment at 60° C. and 75% RH for 8 days; read-out: Storage stability, Percentage of residue

>  <compound>
COc1ccc2[nH]c([S+]([O-])Cc3ncc(C)c(OC)c3C)nc2c1 (centres unmarked) [Omeprazole, reference compound]

>  <display.unit>
%

>  <remaining at 192 h>
3

$$$$
>  <compound>
Cc1ccnc(C[S+]([O-])c2nc3nc(OCC(F)(F)C(F)(F)C(F)(F)F)ccc3[nH]2)c1 (centres unmarked)

>  <display.unit>
%

>  <remaining at 192 h>
73

$$$$

---

# ED50 annotations
tested on: Shay's ulcer; assay: Inhibitory effect on Shay's ulcer; type: in vivo, male Wistar rats; conditions: Rattus norvegicus; oral, rats; 30 minutes before ligation; 14 hours; read-out: Inhibitory effect on Shay's ulcer, ID50
readout.label: ED50 (mg/kg)

>  <compound>
COc1c(C)cnc(C[S+]([O-])c2nc3nc(OCC4CC4)ccc3[nH]2)c1C (stereo not drawn)

>  <readout.label>
ED50

>  <qual>
=

>  <val>
10.8

$$$$
>  <compound>
COc1ccc2[nH]c([S+]([O-])Cc3ncc(C)c(OC)c3C)nc2c1 (stereo not drawn) [Omeprazole, reference compound]

>  <readout.label>
ED50

>  <qual>
=

>  <val>
30.3

$$$$
>  <compound>
COc1c(C)cnc(C[S+]([O-])c2nc3ncc(Br)cc3[nH]2)c1C (stereo not drawn) [Compound α, reference compound]

>  <readout.label>
ED50

>  <qual>
≥

>  <val>
100

$$$$
>  <compound>
COc1c(C)cnc(C[S+]([O-])c2nc3nc(OCC(F)(F)F)ccc3[nH]2)c1C (stereo not drawn)

>  <readout.label>
ED50

>  <qual>
=

>  <val>
14.7

$$$$
>  <compound>
COc1ccc2[nH]c([S+]([O-])Cc3ncc(C)cc3C)nc2n1 (stereo not drawn)

>  <readout.label>
ED50

>  <qual>
=

>  <val>
11

$$$$
>  <compound>
CCCCCCCOc1ccc2[nH]c([S+]([O-])Cc3ncc(C)cc3C)nc2n1 (stereo not drawn)

>  <readout.label>
ED50

>  <qual>
=

>  <val>
19.2

$$$$
>  <compound>
COc1cc(C[S+]([O-])c2nc3nc(OCC4CC4)ccc3[nH]2)ncc1C (stereo not drawn)

>  <readout.label>
ED50

>  <qual>
=

>  <val>
17.4

$$$$
>  <compound>
CCOc1ccc2[nH]c([S+]([O-])Cc3ncc(C)c(C)c3C)nc2n1 (stereo not drawn)

>  <readout.label>
ED50

>  <qual>
=

>  <val>
15.1

$$$$
>  <compound>
COc1c(C)cnc(C[S+]([O-])c2nc3ncc(C)cc3[nH]2)c1C (stereo not drawn) [Compound β, reference compound]

>  <readout.label>
ED50

>  <qual>
=

>  <val>
42

$$$$

Data origin: patent US4808596A
